Activity listing for selected compounds.
target: Polyunsaturated fatty acid 5-lipoxygenase (Homo sapiens); assay: Inhibition of human recombinant 5-LOX pseudoperoxidase activity expressed in Escherichia coli BL21 assessed as compound redox activity by measuring change in absorption at 10 uM using 13(S)-HpODE as substrate in presence of ATP by UV-vis spectrophotometric method relative to control; design: scale not given: the % may be the effect or the level left
Only the number, expressed in %, is required.

// known answers, use as guide
# Line notation, Activity [%]
records = [
    ("COc1ccc(C(=O)Nc2nc(C)c(C(=O)/C=C/c3ccc(F)cc3)s2)cc1", 0.3),
    ("Cc1nc(NC(=O)c2ccccc2)sc1C(=O)/C=C/c1ccc(F)cc1", -12.5),
    ("Cc1ccc(/C=C/C(=O)c2sc(NC(=O)c3ccc(F)cc3)nc2C)cc1", -56.3),
    ("Cc1nc(NC(=O)c2ccccc2)sc1C(=O)/C=C/c1ccc(N(C)C)cc1", -12.2),
    ("COc1cc(/C=C/C(=O)c2sc(NC(=O)c3ccccc3)nc2C)cc(OC)c1OC", -56.6),
    ("Cc1nc(NC(=O)c2ccccc2)sc1C(=O)/C=C/c1cccc([N+](=O)[O-])c1", -40.2),
    ("Cc1nc(NC(=O)c2ccccc2)sc1C(=O)/C=C/c1cc2c(cc1Br)OCO2", 1.2),
]

Turning now to a further record.
The measured Activity associated with `COc1ccc(C(=O)Nc2nc(C)c(C(=O)/C=C/c3ccc(C)cc3)s2)cc1` reads 5.6
